Assay: Human HepG2 cell viability assay in 384 well format
Type: toxicity, cell-based
Design: dose 125 nL, time 70.5 hour; concentration not given beside the values
Details: HepG2 cells, read-out: Inhibition
Answer each item with its documented cytotoxicity at 70.5 h.
# output: bare number, implied unit %

INPUT: Which cytotoxicity at 70.5 h value is on record for `CNC(=O)C(C)(C)N(C)C(=O)c1cc(COc2ccccc2OC)[nH]n1` ?
OUTPUT: -5.11

INPUT: Returns the measured cytotoxicity at 70.5 h for the input molecule. Input: `Cc1ccc(CN2CCc3ncnc(C4CC4)c3CC2)s1`
OUTPUT: 33.9

INPUT: What value of cytotoxicity at 70.5 h has been recorded for this entry: `CCCc1nnc(N2CCC3(CC2)CC(=O)NC(=O)C3)o1`
OUTPUT: 24.4

INPUT: Can you share its cytotoxicity at 70.5 h? I mean this molecule: `CN1CCN(C[C@@H]2CN(C(=O)NCC3CCCCC3)C[C@@H]2CO)CC1`
OUTPUT: 27.6

INPUT: Any idea what cytotoxicity at 70.5 h was measured for `Cc1cccc(CN2CCC3(CC2)CN(c2cnn(C)c2)C(=O)CO3)n1` ?
OUTPUT: 41.4

INPUT: I'd like to know its cytotoxicity at 70.5 h. The molecule in question is `Cc1cc(CN2CCC(c3cc(Cc4ccccc4)n[nH]3)CC2)[nH]n1`
OUTPUT: -16.6

INPUT: What value of measured cytotoxicity at 70.5 h is listed for `CC(C)c1nnc(NCCS(C)(=O)=O)s1` ?
OUTPUT: -0.429

INPUT: Sample O=C(C1CNCCN1C(=O)CCOc1ccccc1)N1CCOCC1 (stereo not given) — what was its cytotoxicity at 70.5 h?
OUTPUT: 4.76

INPUT: For CCc1ccc(CN2CCN(C)C3(CCC(=O)N(CC4CC4)CC3)C2)o1 (stereo not given) , what is its reported cytotoxicity at 70.5 h?
OUTPUT: -1.68

INPUT: // query cytotoxicity at 70.5 h value for entry `CN(CCO)Cc1nnc(C2CCN(C(=O)c3cc[nH]c3)CC2)n1C`
OUTPUT: -1.84

INPUT: Returns the measured cytotoxicity at 70.5 h for the input molecule. Input: `CN1CCN(c2ncnc3c2CCN(C(=O)c2cccn2C)CC3)CC1`
OUTPUT: 6.05

INPUT: Bench note: what cytotoxicity at 70.5 h did `COc1ccc(Nc2nc(N)c(C(C)=O)s2)cc1Cl` show?
OUTPUT: -9.72

INPUT: Which value of cytotoxicity at 70.5 h has been reported for CC(C)c1nccn1C1CCCN(C(=O)CN(C)C2CC2)C1 (stereo not given) in the records?
OUTPUT: -2.03

INPUT: Consider the molecule `Cc1nccn1CCCC(=O)Nc1nc(C(C)C)nn1C` and give its measured cytotoxicity at 70.5 h.
OUTPUT: 10.2

INPUT: Given the entry CC(C)c1cc(NC(=O)CNC2CCCN(c3cccnn3)C2)on1 (stereo not given) , report its measured cytotoxicity at 70.5 h.
OUTPUT: 3.11

INPUT: Can you look up the measured cytotoxicity at 70.5 h of `Cc1nc(CN2CCCn3cnc(COC(C)C)c3C2)cs1` for me?
OUTPUT: -2.95

INPUT: Please report the recorded cytotoxicity at 70.5 h for `O=C1CN(CCCNS(=O)(=O)c2cccc(C(=O)NC3CC3)c2)CCN1` .
OUTPUT: -5.93

INPUT: Which cytotoxicity at 70.5 h value is on record for Cc1cc(CC2COCCN(CCc3ccccc3)C2)ncn1 (stereo not given) ?
OUTPUT: 17.8

INPUT: I have this molecule here, `Cc1ncc2c(n1)CN(Cc1nc3ccccc3o1)CC2` , and I need its recorded cytotoxicity at 70.5 h.
OUTPUT: 11.4

INPUT: Look up cytotoxicity at 70.5 h: `Cc1cc(CN2CC[C@H]3[C@H]2CCN3CC(=O)N(C)C)oc1C`
OUTPUT: -5

INPUT: For `CN(C)c1ncc(CNS(=O)(=O)c2cc(F)ccc2Cl)n1C` , what is its reported cytotoxicity at 70.5 h?
OUTPUT: -9.08

INPUT: Can you share its cytotoxicity at 70.5 h? I mean this molecule: `CC(C)N1CCc2onc(Cn3cccc3)c2C1`
OUTPUT: -2.22

INPUT: Look up cytotoxicity at 70.5 h for this molecule: `COCC(=O)NCCCn1nc2ccccn2c1=O`
OUTPUT: -15.5

INPUT: Query (molecule): `Cn1ccc2c(-c3cc(N4CCCCC4)ncn3)ccnc21` ; field requested: cytotoxicity at 70.5 h
OUTPUT: 24.9

INPUT: So what does the record say about cytotoxicity at 70.5 h for COc1cccc(CNC2CCSC2)c1OC (stereo not given) ?
OUTPUT: -7.09
